Target: TmCheA dimer (full-length T. maritima CheA) (Thermotoga maritima)
Sequence (Q56310 whole entry): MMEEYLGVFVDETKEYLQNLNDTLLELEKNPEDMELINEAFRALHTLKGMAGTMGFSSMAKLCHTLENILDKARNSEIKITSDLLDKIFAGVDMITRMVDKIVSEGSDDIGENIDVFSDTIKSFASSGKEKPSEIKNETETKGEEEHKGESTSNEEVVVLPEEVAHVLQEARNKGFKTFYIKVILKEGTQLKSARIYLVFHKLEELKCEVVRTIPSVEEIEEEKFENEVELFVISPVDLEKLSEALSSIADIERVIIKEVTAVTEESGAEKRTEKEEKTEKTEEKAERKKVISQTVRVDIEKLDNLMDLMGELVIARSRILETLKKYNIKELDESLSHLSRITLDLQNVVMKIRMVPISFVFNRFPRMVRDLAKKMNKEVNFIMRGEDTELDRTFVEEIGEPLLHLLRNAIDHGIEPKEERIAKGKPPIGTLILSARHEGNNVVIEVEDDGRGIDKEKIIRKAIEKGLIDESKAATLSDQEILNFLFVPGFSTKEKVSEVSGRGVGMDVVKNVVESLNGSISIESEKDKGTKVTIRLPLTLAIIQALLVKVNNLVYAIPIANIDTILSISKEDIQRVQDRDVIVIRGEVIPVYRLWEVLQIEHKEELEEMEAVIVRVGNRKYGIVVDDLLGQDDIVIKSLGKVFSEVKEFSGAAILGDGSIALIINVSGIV
Type: binding
Conditions: Kd1^TNP, titration of TNP-ATP with excess TmCheA, 4 °C, Mg2+; 0.002 μM TNP-ATP; one-site binding model
ENDPOINT NAME: pKd
Worth noting: pKd values are minus log10 of concentrations stated in mol/L.

What value of measured pKd is listed for Nc1ncnc2c1ncn2[C@@H]1O[C@H](COP(=O)(O)OP(=O)(O)OP(=O)(O)O)[C@H]2OC3(O[C@H]21)C([N+](=O)[O-])=CC(=[N+]([O-])[O-])C=C3[N+](=O)[O-] (stereo partly shown) ?
8.85
